All values here come from paper PMC6695355.

Percentage of hemolysis at 16 μg/mL values, listed per item
# Tested on: human red blood cells (RBCs)
# assayText: Hemolysis assay
# Assay type: cell-based
# measurementContext: red cells of human, 1 h, 16
Where a SMILES comes first, the peptide text is derived from it.
Reply with just the number (in %).

Below: 2 molecules and their reported Percentage of hemolysis at 16 μg/mL.
Entry under test: CC[C@H](C)[C@H](NC(=O)[C@H](CCCCN)NC(=O)[C@H](CCCCN)NC(=O)[C@@H](NC(=O)[C@@H](NC(=O)[C@H](CC(=O)O)NC(=O)[C@H](Cc1ccccc1)NC(=O)[C@H](CC(C)C)NC(=O)CN)[C@@H](C)CC)[C@@H](C)CC)C(=O)N[C@@H](C)C(=O)N[C@@H](C)C(=O)N[C@@H](CO)C(=O)N[C@@H](Cc1ccccc1)C(N)=O [Peptide E11A] (H-GLFDIIKKIAASF-NH2) . Its Percentage of hemolysis at 16 μg/mL was 0.1

Form field Percentage of hemolysis at 16 μg/mL, entry CC[C@H](C)[C@H](NC(=O)[C@H](CCCCN)NC(=O)[C@H](CCCCN)NC(=O)[C@H](C)NC(=O)[C@@H](NC(=O)[C@H](CC(=O)O)NC(=O)[C@H](Cc1ccccc1)NC(=O)[C@H](CC(C)C)NC(=O)CN)[C@@H](C)CC)C(=O)N[C@@H](C)C(=O)N[C@@H](CCC(=O)O)C(=O)N[C@@H](CO)C(=O)N[C@@H](Cc1ccccc1)C(N)=O [Peptide I6A] (H-GLFDIAKKIAESF-NH2) : 0.1

Shifting focus to the molecule that follows.
Measured Percentage of hemolysis at 16 μg/mL, CC[C@H](C)[C@H](NC(=O)[C@H](CCCCN)NC(=O)[C@H](CCCCN)NC(=O)[C@@H](NC(=O)[C@@H](NC(=O)[C@H](CC(=O)O)NC(=O)[C@H](Cc1ccccc1)NC(=O)[C@H](CC(C)C)NC(=O)[C@H](C)N)[C@@H](C)CC)[C@@H](C)CC)C(=O)N[C@@H](C)C(=O)N[C@@H](CCC(=O)O)C(=O)N[C@@H](CO)C(=O)N[C@@H](Cc1ccccc1)C(N)=O [Peptide G1A] (H-ALFDIIKKIAESF-NH2) : 0.0

* * *

# Test system: human red blood cells (RBCs)
# assayText: Hemolysis assay
# Assay type: cell-based
# measurementContext: red cells of human, 1 h, 8
Where a SMILES comes first, the peptide text is derived from it.
Classification field: enter yes (1) for Percentage of hemolysis at 8 μg/mL values not below 0.1%, no (0) for values below it.

Answered cases to consult:
Reported Percentage of hemolysis at 8 μg/mL reaches at least 0.1% for CC[C@H](C)[C@H](NC(=O)[C@H](CCCCN)NC(=O)[C@H](C)NC(=O)[C@@H](NC(=O)[C@@H](NC(=O)[C@H](CC(=O)O)NC(=O)[C@H](Cc1ccccc1)NC(=O)[C@H](CC(C)C)NC(=O)CN)[C@@H](C)CC)[C@@H](C)CC)C(=O)N[C@@H](C)C(=O)N[C@@H](CCC(=O)O)C(=O)N[C@@H](CO)C(=O)N[C@@H](Cc1ccccc1)C(N)=O [Peptide K7A] (H-GLFDIIAKIAESF-NH2) ?
no (0)

For this compound, is measured Percentage of hemolysis at 8 μg/mL 0.1% or higher? CC[C@H](C)[C@H](NC(=O)[C@H](C)NC(=O)[C@H](CC(=O)O)NC(=O)[C@H](Cc1ccccc1)NC(=O)[C@H](CC(C)C)NC(=O)CN)C(=O)N[C@@H](CCCCN)C(=O)N[C@@H](CCCCN)C(=O)N[C@H](C(=O)N[C@@H](C)C(=O)N[C@@H](CCC(=O)O)C(=O)N[C@@H](CO)C(=O)N[C@@H](Cc1ccccc1)C(N)=O)[C@@H](C)CC [Peptide I5A] (H-GLFDAIKKIAESF-NH2)
no (0)

Hi team, for CC[C@H](C)[C@H](NC(=O)[C@H](CCCCN)NC(=O)[C@H](CCCCN)NC(=O)[C@@H](NC(=O)[C@@H](NC(=O)[C@H](CC(=O)O)NC(=O)[C@H](Cc1ccccc1)NC(=O)[C@H](CC(C)C)NC(=O)CN)[C@@H](C)CC)[C@@H](C)CC)C(=O)N[C@@H](C)C(=O)N[C@@H](CCC(=O)O)C(=O)N[C@@H](CO)C(=O)N[C@@H](C)C(N)=O [Peptide F13A] (H-GLFDIIKKIAESA-NH2) , is the recorded Percentage of hemolysis at 8 μg/mL at or above 0.1%?
yes (1)

hey, is Percentage of hemolysis at 8 μg/mL for this one >= 0.1%? CC[C@H](C)[C@H](NC(=O)[C@H](CCCCN)NC(=O)[C@H](CCCCN)NC(=O)[C@@H](NC(=O)[C@@H](NC(=O)[C@H](CC(=O)O)NC(=O)[C@H](Cc1ccccc1)NC(=O)[C@H](CC(C)C)NC(=O)CN)[C@@H](C)CC)[C@@H](C)CC)C(=O)N[C@@H](C)C(=O)N[C@@H](CCC(=O)O)C(=O)N[C@@H](C)C(=O)N[C@@H](Cc1ccccc1)C(N)=O [Peptide S12A] (H-GLFDIIKKIAEAF-NH2)
no (0)

Identify whether the reported Percentage of hemolysis at 8 μg/mL of the following compound is 0.1% or greater: CC[C@H](C)[C@H](NC(=O)[C@H](CCCCN)NC(=O)[C@H](CCCCN)NC(=O)[C@H](C)NC(=O)[C@@H](NC(=O)[C@H](CC(=O)O)NC(=O)[C@H](Cc1ccccc1)NC(=O)[C@H](CC(C)C)NC(=O)CN)[C@@H](C)CC)C(=O)N[C@@H](C)C(=O)N[C@@H](CCC(=O)O)C(=O)N[C@@H](CO)C(=O)N[C@@H](Cc1ccccc1)C(N)=O [Peptide I6A] (H-GLFDIAKKIAESF-NH2)
yes (1)

New cases:
# check: Percentage of hemolysis at 8 μg/mL of CC[C@H](C)[C@H](NC(=O)[C@H](CCCCN)NC(=O)[C@H](CCCCN)NC(=O)[C@@H](NC(=O)[C@@H](NC(=O)[C@H](CC(=O)O)NC(=O)[C@H](C)NC(=O)[C@H](CC(C)C)NC(=O)CN)[C@@H](C)CC)[C@@H](C)CC)C(=O)N[C@@H](C)C(=O)N[C@@H](CCC(=O)O)C(=O)N[C@@H](CO)C(=O)N[C@@H](Cc1ccccc1)C(N)=O [Peptide F3A] (H-GLADIIKKIAESF-NH2) is greater than or equal to 0.1%
no (0)

Percentage of hemolysis at 8 μg/mL >= 0.1% for CC[C@H](C)[C@H](NC(=O)[C@H](C)NC(=O)[C@H](Cc1ccccc1)NC(=O)[C@H](CC(C)C)NC(=O)CN)C(=O)N[C@H](C(=O)N[C@@H](CCCCN)C(=O)N[C@@H](CCCCN)C(=O)N[C@H](C(=O)N[C@@H](C)C(=O)N[C@@H](CCC(=O)O)C(=O)N[C@@H](CO)C(=O)N[C@@H](Cc1ccccc1)C(N)=O)[C@@H](C)CC)[C@@H](C)CC [Peptide D4A] (H-GLFAIIKKIAESF-NH2) ?
yes (1)

Is Percentage of hemolysis at 8 μg/mL at least 0.1%? Consider CC[C@H](C)[C@H](NC(=O)[C@H](CCCCN)NC(=O)[C@H](CCCCN)NC(=O)[C@@H](NC(=O)[C@@H](NC(=O)[C@H](CC(=O)O)NC(=O)[C@H](Cc1ccccc1)NC(=O)[C@H](C)NC(=O)CN)[C@@H](C)CC)[C@@H](C)CC)C(=O)N[C@@H](C)C(=O)N[C@@H](CCC(=O)O)C(=O)N[C@@H](CO)C(=O)N[C@@H](Cc1ccccc1)C(N)=O [Peptide L2A] (H-GAFDIIKKIAESF-NH2)
yes (1)

* * *

# System: human red blood cells (RBCs)
# assayText: Hemolysis assay
# Type: cell-based
# measurementContext: red cells of human, 1 h, 4
Where a SMILES comes first, the peptide text is derived from it.
Parameter Percentage of hemolysis at 4 μg/mL: see the listing below.
Use % as the unit, but write only the number.

Example entries and their recorded answers appear below.
Just so you know, measured Percentage of hemolysis at 4 μg/mL for CC[C@H](C)[C@H](NC(=O)[C@H](CCCCN)NC(=O)[C@H](CCCCN)NC(=O)[C@@H](NC(=O)[C@@H](NC(=O)[C@H](CC(=O)O)NC(=O)[C@H](Cc1ccccc1)NC(=O)[C@H](CC(C)C)NC(=O)CN)[C@@H](C)CC)[C@@H](C)CC)C(=O)N[C@@H](C)C(=O)N[C@@H](CCC(=O)O)C(=O)N[C@@H](C)C(=O)N[C@@H](Cc1ccccc1)C(N)=O [Peptide S12A] (H-GLFDIIKKIAEAF-NH2) came out at 0.0

Briefly, Percentage of hemolysis at 4 μg/mL measured for CC[C@H](C)[C@H](NC(=O)[C@H](CCCCN)NC(=O)[C@H](CCCCN)NC(=O)[C@@H](NC(=O)[C@@H](NC(=O)[C@H](CC(=O)O)NC(=O)[C@H](Cc1ccccc1)NC(=O)[C@H](CC(C)C)NC(=O)CN)[C@@H](C)CC)[C@@H](C)CC)C(=O)N[C@@H](C)C(=O)N[C@@H](CCC(=O)O)C(=O)N[C@@H](CO)C(=O)N[C@@H](C)C(N)=O [Peptide F13A] (H-GLFDIIKKIAESA-NH2) : 0.5

So for CC[C@H](C)[C@H](NC(=O)[C@H](CC(=O)O)NC(=O)[C@H](Cc1ccccc1)NC(=O)[C@H](CC(C)C)NC(=O)CN)C(=O)N[C@H](C(=O)N[C@@H](CCCCN)C(=O)N[C@@H](CCCCN)C(=O)N[C@@H](C)C(=O)N[C@@H](C)C(=O)N[C@@H](CCC(=O)O)C(=O)N[C@@H](CO)C(=O)N[C@@H](Cc1ccccc1)C(N)=O)[C@@H](C)CC [Peptide I9A] (H-GLFDIIKKAAESF-NH2) , the logged Percentage of hemolysis at 4 μg/mL turned out to be 0.3

// CC[C@H](C)[C@H](NC(=O)[C@H](CCCCN)NC(=O)[C@H](CCCCN)NC(=O)[C@@H](NC(=O)[C@@H](NC(=O)[C@H](CC(=O)O)NC(=O)[C@H](Cc1ccccc1)NC(=O)[C@H](C)NC(=O)CN)[C@@H](C)CC)[C@@H](C)CC)C(=O)N[C@@H](C)C(=O)N[C@@H](CCC(=O)O)C(=O)N[C@@H](CO)C(=O)N[C@@H](Cc1ccccc1)C(N)=O [Peptide L2A] (H-GAFDIIKKIAESF-NH2) : Percentage of hemolysis at 4 μg/mL value = 0.4

More entries:
So for CC[C@H](C)[C@H](NC(=O)[C@H](CCCCN)NC(=O)[C@H](CCCCN)NC(=O)[C@@H](NC(=O)[C@@H](NC(=O)[C@H](CC(=O)O)NC(=O)[C@H](Cc1ccccc1)NC(=O)[C@H](CC(C)C)NC(=O)CN)[C@@H](C)CC)[C@@H](C)CC)C(=O)N[C@@H](C)C(=O)N[C@@H](C)C(=O)N[C@@H](CO)C(=O)N[C@@H](Cc1ccccc1)C(N)=O [Peptide E11A] (H-GLFDIIKKIAASF-NH2) , the logged Percentage of hemolysis at 4 μg/mL turned out to be 0.2
